- System: Staphylococcus aureus
- Experimental Details: Antibacterial activity against Staphylococcus aureus ATCC 25923 by disc diffusion method
- Assay type: functional
- Condition Label: Staphylococcus aureus, ATCC 25923; read-out: MIC

{"columns": ["Smiles Structure", "Display Unit", "Comparison Operator", "MIC"],
 "data": [
  ["O=c1c2c3c(sc2nc2sc(-c4cc(Cl)cc(Cl)c4)nn12)CCCC3", "µg/mL", ">", 100],
  ["O=c1c2c3c(sc2nc2sc(Cc4ccccc4)nn12)CCCC3", "µg/mL", ">", 100],
  ["COc1ccc(C(=O)CSc2nc3sc4c(c3c(=O)n2N)CCCC4)cc1", "µg/mL", ">", 100],
  ["Cc1cccc(-c2nn3c(=O)c4c5c(sc4nc3s2)CCCC5)c1", "µg/mL", "=", 10],
  ["CCCc1nn2c(=O)c3c4c(sc3nc2s1)CCCC4", "µg/mL", "=", 10],
  ["Nn1c(SCC(=O)c2ccc(O)c(O)c2)nc2sc3c(c2c1=O)CCCC3", "µg/mL", "=", 60],
  ["Cc1nn2c(=O)c3c4c(sc3nc2s1)CCCC4", "µg/mL", "=", 10],
  ["O=c1c2c3c(sc2nc2sc(-c4ccc([N+](=O)[O-])cc4)nn12)CCCC3", "µg/mL", ">", 100],
  ["Cc1cc(C)cc(-c2nn3c(=O)c4c5c(sc4nc3s2)CCCC5)c1", "µg/mL", ">", 100],
  ["Nn1c(SCC(=O)c2ccccc2)nc2sc3c(c2c1=O)CCCC3", "µg/mL", "=", 12.5],
  ["Nn1c(SCC(=O)c2ccc(Cl)cc2)nc2sc3c(c2c1=O)CCCC3", "µg/mL", ">", 100],
  ["Nn1c(SCC(=O)c2ccnc(Cl)c2)nc2sc3c(c2c1=O)CCCC3", "µg/mL", "=", 80],
  ["Nn1c(SCC(=O)c2cc3ccccc3oc2=O)nc2sc3c(c2c1=O)CCCC3", "µg/mL", "=", 6.25],
  ["O=c1c2c3c(sc2nc2sc(-c4ccccc4)nn12)CCCC3", "µg/mL", "=", 60],
  ["CCc1nn2c(=O)c3c4c(sc3nc2s1)CCCC4", "µg/mL", ">", 100]
]}

All figures here come from ChEMBL document CHEMBL1146350.
